- target: HIF-2α PAS-B (Homo sapiens, UniProt Q99814)
- Sequence (Q99814 240-350): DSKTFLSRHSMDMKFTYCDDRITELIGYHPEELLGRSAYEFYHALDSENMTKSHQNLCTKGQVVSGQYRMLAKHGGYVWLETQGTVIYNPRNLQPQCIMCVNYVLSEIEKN
- method.description: MST
[ ]: non-standard residue; d: D form. Phe(4-I) = N[C@@H](Cc1ccc(I)cc1)C(=O)O
Reported Kd is given for each of the following binders.
Entry rule: numbers only, all in µM.

As a guide, the following entries are already answered.
[[record]]
binder = "CRLLIF (head-to-tail cyclic peptide) [cyclo-CRLLIF]"
metric = "Kd"
experimental_value = 10.2

[[record]]
binder = "CRVIIF (head-to-tail cyclic peptide) [cyclo-CRVIIF]"
metric = "Kd"
experimental_value = 123

[[record]]
binder = "cyclo(CRLII[Phe(4-I)]) (SMILES CC[C@H](C)[C@@H]1NC(=O)[C@H](CC(C)C)NC(=O)[C@H](CCCNC(=N)N)NC(=O)[C@H](CS)NC(=O)[C@H](Cc2ccc(I)cc2)NC(=O)[C@H]([C@@H](C)CC)NC1=O) [cyclo-CRLII(4-iodo)F]"
metric = "Kd"
experimental_value = 1.7


Can you share its Kd? I mean this binder: CKLIIF (head-to-tail cyclic peptide) [cyclo-CKLIIF]
2.2

Origin of values: paper PMC10996005
